# system.tested: catalytic subunit of PKA, isoform alpha, residues 16-351 (PKAcα_(16-351)), preparation for ITC (mouse, UniProt P05132-1 16-351)
# assay.name: ITC; peptide or substrate (1.25 to 4.3 mM) titrated into the cell containing PKAc (149 to 204 μM); 4 °C; 50 mM Hepes (pH 7.4), 150 mM KCl, 5 mM MgCl2, 2 mM TCEP; 0.5 mM AMP-PNP in both solutions
# condition.details: both partners purified
outcome.measure: stoichiometry N

Here is how some binders turned out for stoichiometry N.
RGFLRSASLGRRASAHL (human CaV1.2 residues 1968-1984 with F1982A (P+1 position); also called F1982A peptide; S1981 (F1982A); source: synthetic peptide) [CaV1.2 Ser1981 peptide F1982A]: 0.99
RGFLRSARLGRRASFHL (also called S1975R peptide; S1981 (S1975R); source: synthetic peptide) [CaV1.2 Ser1981 peptide S1975R]: 1.08
RGFLRSASLGRRASFHL (human CaV1.2 (α1c subunit) C-terminal tail, residues 1968-1984 around the PKA site Ser1981; also called S1981 peptide; CaV1.2 S1981 peptide; source: synthetic peptide) [CaV1.2 Ser1981 peptide]: 0.98
RGFARSASLGRRASFHL (also called L1971A peptide; S1981 (L1971A); source: synthetic peptide) [CaV1.2 Ser1981 peptide L1971A]: 1.06
GAGRERDRRRGSTPW (Rad GTPase N-terminal tail, residues 14-28 around Ser25; also called Rad S25 peptide; source: synthetic peptide) [Rad Ser25 peptide]: 0.83

What value of stoichiometry N has been recorded for this entry: ARRQAGTRRRESLGK (Rad GTPase C-terminal tail, residues 261-275 around Ser272; also called Rad S272 peptide; S272 peptide; source: synthetic peptide) [Rad Ser272 peptide]
0.98

Origin of the recorded values: paper PMC11728977
